Listed below: TGI values for each entry.
System: SF-539 CNS
Experiment: NCI tumour cell line growth inhibition, 48 h
result.type: TGI (µM)

>>> observed_value("CCN(CCNc1ccc(C)c2sc3cc(Cl)ccc3c(=O)c12)CC(C)(C)O")
24
>>> observed_value("CCN(CC)CCS(=O)(=O)CCNc1ccnc2cc(Cl)ccc12")
14.3
>>> observed_value("COC(=O)[C@]1(C)[C@H]2C[C@H]3O[C@H]4[C@H](O)[C@@H](O)OC(CC(O)C(C5=CC(=O)OC5)C(C5=CC(=O)OC5)C(O)CC56CCCCC7[C@@H](C)[C@H](C[C@H]8[C@](C)(C(=O)OC)[C@H](O)CC[C@]78C)O[C@H]([C@@H](O)[C@H](O)O5)[C@H]6O)(CCCCC([C@@H]3C)[C@]2(C)CC[C@@H]1O)[C@H]4O (some centres undefined)")
0.321
>>> observed_value("CCOc1cc2c(cc1O)CC[C@@H]1[C@@H]2CC[C@]2(C)[C@@H](O)CC[C@@H]12")
0.0426
>>> observed_value("O=C1C2C(C(=O)N1CC[Se][Se]CCN1C(=O)C3C(C1=O)[C@H]1C=C[C@@H]3C1)[C@H]1C=C[C@@H]2C1 (some centres undefined)")
0.467

Taken from PubChem BioAssay (NCI).
